pKi reference
- study.target: α2β3γ2 benzodiazepine receptor GABA(A) isoform (UniProt P18507+P47869)
- procedure.details: Radioligand competition binding, α2β3γ2 BzR/GABA(A) isoform
- Set-up: species or system human and rat
- test.conditions: Table 2; means of two determinations; read-out: Ki α2
- Method: The affinity of all ligands at the 6 major recombinant GABAA/BzR subtypes was measured by competition for [^3H]Ro15-1788 binding to HEK-T cells expressing both human and rat GABAA/Bz receptors of composition α1β2γ2 (α1), α2β2γ2 (α2), α3β2γ2 (α3), α4β2γ2 (α4), α5β2γ2 (α5) and α6β2γ2 (α6). It is well known that the β2 and β3 subunits can be interchanged with no effect on Bz ligand affinity or efficacy. […]
pKi field: float, defined as -log10 of concentration (mol/L).

{"molecule": "C#Cc1ccc2c(c1)C(=O)N1CC[C@H]1c1c(-c3ocnc3C(=O)OCC)ncn1-2 [RY069]", "pKi": 6.21}

// next item, pKi requested
Entry CCOC(=O)c1ncoc1-c1ncn2c1[C@@H]1CCN1C(=O)c1cc(C#C[Si](C)(C)C)ccc1-2 [RY068] has what pKi? 6.06

Attribution: patent US7595395B2
